test.description: NCI Yeast Anticancer Drug Screen. Data for the rad50 strain (AID 155);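 further: 0% = growth of vehicle-only cultures of the same strain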
measurement.setup: S. cerevisiae rad50 strain growth inhibition; at 50.0 µM; stronger effect = higher value
The panel holds about 79,000 compounds, 15% with a hit somewhere; the sample as a whole holds those more often. The source made the active and inactive calls. No stated cut-off is given here; in the data, active means growth inhibition above about 70%; inactive means the rest.
Reported values of growth inhibition for individual entries
quantity: growth inhibition

• NC(Cc1ccccc1)C(=O)O (stereo unspecified) = -20.7% (inactive)
• C=CCOC(=O)C(O)C=C (stereo unspecified) = 7.9% (inactive)
• O=C1NC(c2ccccc2Cl)Nc2ccccc21 (stereo unspecified) = -1.1% (inactive)
• N#CCCN(C1=NN(C(=O)CC(=O)Nc2cccc(Cl)c2)C(c2ccccc2)C1)c1ccccc1Cl (stereo unspecified) = 8.2% (inactive)
• COC(=O)C(=O)C(C(=O)C(=O)Nc1cccc(OC)c1)c1nc2ccc(Cl)cc2[nH]c1=O (stereo unspecified) = 21.1% (inactive)
• Cc1cc(C)n(-c2ccncc2[N+](=O)[O-])n1 = 7.55% (inactive)

----------
# key: entry, value: growth inhibition
test.description: NCI Yeast Anticancer Drug Screen. Data for the mec2-1 strain (AID 157)
measurement.setup: S. cerevisiae mec2-1 strain, at 50.0 µM, stronger effect = higher value
Compounds without any hit were thinned out: in the full panel of roughly 79,000, 15% have a hit.
quantity: growth inhibition (%)

• CCc1n[nH]c(=S)n1/N=C/c1ccc(-c2ccc([N+](=O)[O-])cc2)o1 = -17.6
• CC[n+]1c(/C=C\N(C(C)=O)c2ccccc2)oc2ccccc21 = -25.3
• O=C(Nc1ccccc1)OC1CCCC12CC2 (stereo unspecified) = 4.9
• c1ccc(CN(CCNc2ccccc2)c2ccccc2)cc1 = 48.4
• Nc1cc2c(C3OC(CO)C(O)C3O)[nH]nc2c(=S)[nH]1 (stereo unspecified) = 7.05
• COc1cc([C@@H]2c3cc4c(cc3[C@@H](Nc3ccc(NC(=O)c5cc(NC(=O)c6cc([N+](=O)[O-])cn6C)cn5C)cc3)[C@H]3COC(=O)[C@H]23)OCO4)cc(OC)c1O = 31.6

----------
Measured growth inhibition accompanies every entry in the list below.
test.description: NCI Yeast Anticancer Drug Screen. Data for the bub3 strain (AID 167)
measurement.setup: S. cerevisiae bub3 mutant strain, at 50.0 µM, stronger effect = higher value
Compounds without any hit were thinned out: in the full panel of roughly 79,000, 15% have a hit.
quantity: growth inhibition (%)

• OC(CN(C1CCCCC1)C1CCCCC1)c1ccnc2c(Cl)cc(Cl)cc12 (stereo not given) = -6.3
• CC1=CC(=O)C(O)C2(C)C(CCC3(C)OCCO3)C=C(O[Si](C)(C)C(C)(C)C)CC12 (stereo not given) = 5.15
• COC(=O)C(N)CSc1ccc([N+](=O)[O-])cc1[N+](=O)[O-] (stereo not given) = 16.1
• CCCCCC/C(C)=N/O = 10.7
• O=[N+]([O-])c1cc(/C=N\NS(=O)(=O)c2ccc(Cl)cc2)c(O)c([N+](=O)[O-])c1 = 8.75

----------
test.description: NCI Yeast Anticancer Drug Screen. Data for the mlh1 rad18 strain (AID 175)
measurement.setup: S. cerevisiae mlh1 rad18 strain growth inhibition; at 50.0 µM; stronger effect = higher value
About 79,000 compounds went through this panel and 15% of them were active in at least one assay; those are over-represented in the sample as a whole.
Mark 1 (yes) for reported growth inhibition of 20% or greater; mark 0 (no) for anything smaller.

• CC(=O)Oc1cc(OC(C)=O)c2c(c1C)CC[C@@H]1[C@@H]2CC[C@]2(C)[C@@H](OC(C)=O)CC[C@@H]12 = 1 (yes)
• CCCCCCOC(=O)c1cccc(C)c1 = 0 (no)
• CC/C(C)=C1/CC(C)(C)N=C1C = 0 (no)
• Cc1ccc(S(=O)(=O)N(Cc2cccc([N+](=O)[O-])c2)c2ccc(C(=O)O)cc2)cc1 = 1 (yes)
• COC(=O)c1nc(N)nc(C(=O)OC)c1C(=O)c1cccs1 = 0 (no)
• CC(=O)Nc1[nH]ncc1C#N = 0 (no)

All figures here come from PubChem BioAssay (NCI).
